B1: Hairpin Ribozyme (parent)
chain: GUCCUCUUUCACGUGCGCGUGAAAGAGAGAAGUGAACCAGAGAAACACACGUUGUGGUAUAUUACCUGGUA

- Variants of: B1
- PROTOCOL SUMMARY: self-cleavage, relative activity (ratio to wild type); higher = more cleavage; co-transcriptional
PARAMETER MEASURED: self-cleavage

Some variants with known self-cleavage results, for comparison:
INSERT INTO assay_data (mutant_designation, data_value) VALUES
  ('C38U A71U', 0.401),
  ('U5C A22G', 0.63),
  ('C4A G15A', 0.227),
  ('C48A G56A', 0.135),
  ('A45G U52C', 0.0811);

Okay, now this variant:
For U52A G54C , what is its reported self-cleavage? 0.47

// data source = the RNAGym collection of RNA variant scans (doi:10.7554/elife.80360)
